experiment description: self-splicing fitness, log relative to wild type (ln ratio); higher = more splicing; Tetrahymena group I intron in knt gene, E. coli kanamycin selection, DiMSum; sequences stand for … in CUCUCU…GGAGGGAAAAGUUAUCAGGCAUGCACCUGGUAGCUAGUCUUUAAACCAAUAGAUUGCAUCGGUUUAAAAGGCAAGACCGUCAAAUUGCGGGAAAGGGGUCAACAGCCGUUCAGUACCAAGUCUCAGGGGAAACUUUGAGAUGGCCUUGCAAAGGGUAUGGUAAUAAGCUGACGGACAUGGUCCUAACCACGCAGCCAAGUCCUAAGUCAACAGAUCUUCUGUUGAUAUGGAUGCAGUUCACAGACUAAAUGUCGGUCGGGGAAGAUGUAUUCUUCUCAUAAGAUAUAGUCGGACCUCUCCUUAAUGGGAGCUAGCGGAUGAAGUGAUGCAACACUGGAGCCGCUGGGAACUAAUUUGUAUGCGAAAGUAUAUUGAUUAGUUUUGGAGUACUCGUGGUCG;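 note: selection with 25 µg/mL kanamycin versus none on LB agar overnight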
recorded conditions: 30 °C
self-splicing fitness (ln) values by entry

GCAGAGCAAUAUUACGGUGU | -4.3
CACGAGCAAUAUUACGUUAC | -4.19
AAGUAGCAAUAUUACGUGCG | -1.48
GCGAAGCAAUAUUACGAGAG | -3.95
CUAAAGCAAUAUUACGGCGU | -3.68
AAUUAGCAAUAUUACGCUAU | -2.55
GCCGAGCAAUAUUACGGUGG | -3.52
UAUUAGCAAUAUUACGCAGU | -2.78
ACUGAGCAAUAUUACGACGC | 0.0713
CUGUAGCAAUAUUACGCUAC | -3.21

Let us examine a further case.
Value of self-splicing fitness (ln) reported for the sequence `GUCCAGCAAUAUUACGGUGU` is -0.42

====

experiment description: self-splicing fitness, log relative to wild type (ln ratio); higher = more splicing; Tetrahymena group I intron in knt gene, E. coli kanamycin selection, DiMSum; sequences stand for … in CUCUCU…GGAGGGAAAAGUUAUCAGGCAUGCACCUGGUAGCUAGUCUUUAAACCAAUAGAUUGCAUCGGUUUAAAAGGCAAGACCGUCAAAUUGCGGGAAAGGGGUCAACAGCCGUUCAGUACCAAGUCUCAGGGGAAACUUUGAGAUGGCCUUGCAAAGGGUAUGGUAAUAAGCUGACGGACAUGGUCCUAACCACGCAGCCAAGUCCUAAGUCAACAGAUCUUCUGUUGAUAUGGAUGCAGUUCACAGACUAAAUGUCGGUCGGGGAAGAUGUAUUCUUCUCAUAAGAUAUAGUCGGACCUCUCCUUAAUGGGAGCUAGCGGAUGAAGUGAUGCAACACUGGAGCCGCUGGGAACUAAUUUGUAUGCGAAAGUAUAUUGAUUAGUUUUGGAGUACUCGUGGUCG
recorded conditions: 37 °C
Decide using self-splicing fitness (ln): a value greater than or equal to -2 is 1, a smaller one is 0.

Please review the entries below; each comes with its answer.
CCCCAGCAAUAUUACGGAGC | 0
UAACAGCAAUAUUACGUUGA | 1
CCAAAGCAAUAUUACGGAUC | 0
AAGUAGCAAUAUUACGUACC | 1
AUUAAGCAAUAUUACGAGCU | 1
CUUAAGCAAUAUUACGGCAG | 1
UGCUAGCAAUAUUACGUGUG | 1
CCGAAGCAAUAUUACGCGGU | 0
UACGAGCAAUAUUACGGAGU | 0
UUGCAGCAAUAUUACGCAGC | 1

Assess whether reported self-splicing fitness (ln) for `GUAUAGCAAUAUUACGUGGA` sits at -2 or higher.
0

Assess whether reported self-splicing fitness (ln) for `CUAGAGCAAUAUUACGUGGA` sits at -2 or higher.
1

Assess whether reported self-splicing fitness (ln) for `UGGUAGCAAUAUUACGGUCU` sits at -2 or higher.
1

Assess whether reported self-splicing fitness (ln) for `UUGGAGCAAUAUUACGCAAA` sits at -2 or higher.
0

Assess whether reported self-splicing fitness (ln) for `ACGCAGCAAUAUUACGUUCA` sits at -2 or higher.
1

Assess whether reported self-splicing fitness (ln) for `ACUCAGCAAUAUUACGGUAU` sits at -2 or higher.
1

Assess whether reported self-splicing fitness (ln) for `AUUCAGCAAUAUUACGGCUA` sits at -2 or higher.
1

Assess whether reported self-splicing fitness (ln) for `UCCAAGCAAUAUUACGUAAG` sits at -2 or higher.
0

Assess whether reported self-splicing fitness (ln) for `GAGAAGCAAUAUUACGAACU` sits at -2 or higher.
1

Assess whether reported self-splicing fitness (ln) for `ACAUAGCAAUAUUACGUAUC` sits at -2 or higher.
1

Assess whether reported self-splicing fitness (ln) for `UUAUAGCAAUAUUACGUUUA` sits at -2 or higher.
1

Assess whether reported self-splicing fitness (ln) for `CUAAAGCAAUAUUACGGUGA` sits at -2 or higher.
1

Assess whether reported self-splicing fitness (ln) for `UCGCAGCAAUAUUACGUGAG` sits at -2 or higher.
1

Assess whether reported self-splicing fitness (ln) for `UCACAGCAAUAUUACGAGGC` sits at -2 or higher.
0

These data points were gathered from the supplement of paper PMC7877785.
